Origin of measurements: patent US20240327334A1

Kindly state EC50 for each of the entries shown.
Tested on: SARS-CoV-2 replicon
test summary: microbe, parasite or virus in culture
Assay type: cell-based
measurement setup: Severe acute respiratory syndrome coronavirus 2, Huh-7

Examples with their reported EC50 follow.
- O=C(NCC#Cc1nccs1)C(=O)NCc1cccnc1C(=O)NC1(c2cc(F)cc(-c3cnn(C4CC4)c3)c2)CC1: < 1000 nM
- O=C(/C=C/CNC(=O)C(=O)NCc1ccccc1C(=O)NC1(c2cccc3ccccc23)CC1)NC1CC1: > 10000 nM
- N#C/C=C/CNC(=O)C(=O)NCc1ccccc1C(=O)NC1(c2cc(Br)cc3ccccc23)CC1: < 1000 nM
- O=C(NCC#Cc1nccs1)C(=O)NCc1ccccc1C(=O)NC1(c2cc(-c3ccn(C(F)F)n3)cc(F)c2F)CC1: < 1000 nM
- N#CCNC(=O)C(=O)NCc1ccccc1C(=O)NC1(c2cn(-c3cnn(C4CC4)c3)c3ncccc23)CC1: 1000 to 10000 nM

List EC50 for every entry below, keeping the order given.
1. C[C@@H](C#Cc1nccs1)NC(=O)C(=O)NCc1ccccc1C(=O)NC1(c2ccc3nn(C)cc3c2F)CC1
2. COC(=O)/C=C/CCNC(=O)C(=O)NCc1ccccc1C(=O)NC1(c2cccc3ccccc23)CC1
3. O=C(NCC#Cc1ncc(F)s1)C(=O)NCc1ccccc1C(=O)NC1(c2ccc3ccccc3c2)CC1

Response:
< 1000 nM
< 1000 nM
< 1000 nM

###

Kindly state pEC50 for each of the entries shown.
Test system: SARS-CoV-2 replicon
test summary: microbe, parasite or virus in culture
Type: cell-based
measurement setup: Severe acute respiratory syndrome coronavirus 2, Huh-7
pEC50: −log10 of the molar value.

* N#CCNC(=O)C(=O)NCc1ccccc1C(=O)NC1(c2cc(Cl)cc(Br)c2)CC1 | < 5.00

List pEC50 for every entry below, keeping the order given.
1. CC(C#N)NC(=O)C(=O)NCc1ccccc1C(=O)NC1(c2cccc3ccccc23)CC1 (centres unmarked)
2. O=C(/C=C/CNC(=O)C(=O)NCc1ccccc1C(=O)NC1(c2cccc3ccccc23)CC1)NC1(C(F)(F)F)CC1
3. CC(C)n1ncnc1C#C[C@H](C)NC(=O)C(=O)NCc1ccccc1C(=O)NC1(c2cc(F)cc(-c3cnn(C4CC4)c3)c2)CC1
4. O=C(NCC#Cc1ncc(F)cc1F)C(=O)NCc1ccccc1C(=O)NC1(c2ccc3ccccc3c2)CC1
5. C#CCNC(=O)C(=O)NCc1ccccc1C(=O)NC1(c2cc(Cl)cc(-c3cncs3)c2)CC1

Response:
1: < 5.00; 2: < 5.00; 3: > 6.00; 4: > 6.00; 5: > 6.00

###

measured target: SARS-CoV-2 Papain-like (PLpro) protease (Severe acute respiratory syndrome coronavirus 2, UniProt P0DTD1)
test summary: SARS-CoV-2 Papain-like (PLpro) protease biochemical enzyme inhibition assay (ubiquitin-fluorophore substrate, Ub-R110)
measurement setup: Ub-R110 substrate; run in duplicate; read-out: PLpro IC50
Kindly state IC50 for each of the entries shown.

Examples with their reported IC50 follow.
- Cn1cc2cc(C3(NC(=O)c4ccccc4CNC(=O)C(=O)NCC#Cc4nccs4)CC3)ccc2n1: < 0.1 µM
- CC(C)(C)OC(=O)N1CCC[C@@H]1CNC(=O)C(=O)NCc1ccccc1C(=O)NC1(c2cccc3ccccc23)CC1: > 10 µM
- C[C@@H](C#Cc1nccs1)NC(=O)C(=O)NCc1ccccc1C(=O)NC1(c2ccnc3c2ccn3C2CC2)CC1: < 0.1 µM
- C#CCNC(=O)C(=O)NCc1ccccc1C(=O)NC1(c2cc(Cl)cc(-c3c(C)nn(C4CC4)c3C)c2)CC1: < 0.1 µM
- C#CCNC(=O)C(=O)NCc1ccccc1C(=O)NC1(c2cc(Cl)cc(-c3cn(C)nc3C)c2)CC1: < 0.1 µM

List IC50 for every entry below, keeping the order given.
1. CS(=O)(=O)/C=C/CNC(=O)C(=O)NCc1ccccc1C(=O)NC1(c2cccc3ccccc23)CC1
2. N#CCNC(=O)C(=O)N1Cc2cccc(C(=O)NC3(c4cc(Br)cc5ccccc45)CC3)c2C1

Response:
["< 0.1 µM", "1 to 10 µM"]

###

measured target: UniProt P0DTD1
test summary: SARS-CoV-2 Papain-like (PLpro) protease biochemical enzyme inhibition assay (ubiquitin-fluorophore substrate, Ub-R110)
measurement setup: Ub-R110 substrate; run in duplicate; read-out: PLpro IC50
assay endpoint: IC50

List IC50 for every entry below, keeping the order given.
1. N#CCNC(=O)C(=O)NCc1ccccc1C(=O)NC1(c2cc(C(F)(F)F)ccc2Cl)CC1
2. C#CCNC(=O)C(=O)NCc1ccccc1C(=O)NC1(c2cc(-c3c(C)n[nH]c3C)cc(C(F)(F)F)c2)CC1
3. C[C@@H](NC(=O)c1ccccc1CNC(=O)C(=O)NCC#N)c1cc(-c2cnn(C(F)F)c2)cc(C(F)(F)F)c1

Response:
["100 to 1000 nM", "< 100 nM", "100 to 1000 nM"]

List IC50 for every entry below, keeping the order given.
1. O=C(NC/C=C/C(=O)N1CC[C@@H](O)C1)C(=O)NCc1ccccc1C(=O)NC1(c2cccc3ccccc23)CC1
2. N#CCNC(=O)C(=O)NCc1ccccc1C(=O)NC1(c2cc(-c3cccs3)cc(-c3cccs3)c2)CC1
3. O=C(NCC#Cc1ncccc1OC(F)(F)F)C(=O)NCc1ccccc1C(=O)NC1(c2ccc3ccccc3c2)CC1
4. CC(C#N)NC(=O)C(=O)NCc1ccccc1C(=O)NC1(c2cccc3ccccc23)CC1 (stereo not drawn)
5. COC(=O)/C=C/CNC(=O)C(=O)NCc1ncoc1C(=O)N[C@H](C)c1cccc2ccccc12

Response:
1: < 100 nM; 2: < 100 nM; 3: < 100 nM; 4: 100 to 1000 nM; 5: > 10000 nM

List IC50 for every entry below, keeping the order given.
1. C[C@@H](C#Cc1nccs1)NC(=O)C(=O)NCc1ccccc1C(=O)NC1(c2cc(F)cc(-c3cnn(C4COC4)c3)c2)CC1
2. Cc1nn(C)c(C)c1-c1cc(F)cc(C2(NC(=O)c3ccccc3CNC(=O)C(=O)NCC#Cc3nccs3)CC2)c1
3. N#CCCNC(=O)C(=O)NCCc1ccccc1C(=O)NC1(c2ccc3ccccc3c2)CC1
4. C[C@@H](NC(=O)c1ccccc1CNC(=O)C(=O)NCC#N)c1cc(-c2cccs2)cc(C(F)(F)F)c1
5. C[C@@H](C#Cc1ccc([S+](C)[O-])cc1)NC(=O)C(=O)NCc1ccccc1C(=O)NC1(c2ccc3nn(C)cc3c2)CC1 (stereo partly drawn)
6. Cn1cc2cc(C3(NC(=O)c4ccccc4CNC(=O)C(=O)NCC#N)CC3)ccc2n1

Response:
1. < 100 nM
2. < 100 nM
3. > 10000 nM
4. < 100 nM
5. 1000 to 10000 nM
6. 100 to 1000 nM

Request: Param item = Cn1cnc(C#CCNC(=O)C(=O)NCc2ccccc2C(=O)NC2(c3ccc4ccccc4c3)CC2)n1 ; retrieve measured IC50.
Response: < 100 nM

###

Kindly state pEC50 for each of the entries shown.
System: SARS-CoV-2 replicon
test summary: microbe, parasite or virus in culture
Assay type: cell-based
measurement setup: Severe acute respiratory syndrome coronavirus 2, Huh-7
pEC50: −log10 of the molar value.

Examples with their reported pEC50 follow.
• CS(=O)(=O)n1cc(-c2cc(C3(NC(=O)c4ccccc4CNC(=O)C(=O)NCC#N)CC3)c3ccccc3c2)cn1 = 5.00 to 6.00
• COC(=O)/C(C)=C/CNC(=O)C(=O)NCc1ccccc1C(=O)N[C@H](C)c1cccc2ccccc12 = > 6.00
• O=C(NCC#CBr)C(=O)NCc1ccccc1C(=O)NC1(c2cc(Br)cc3ccccc23)CC1 = > 6.00
• O=C(NCC#Cc1ncccc1OC(F)(F)F)C(=O)NCc1ccccc1C(=O)NC1(c2ccc3ccccc3c2)CC1 = > 6.00

List pEC50 for every entry below, keeping the order given.
1. O=C(NC/C=C/C(=O)N1CCCCO1)C(=O)NCc1ccccc1C(=O)NC1(c2cccc3ccccc23)CC1
2. COC(=O)/C=C/CNC(=O)C(=O)NCc1ccccc1C(=O)N[C@H](C)c1cc(-c2cccs2)cc(C(F)(F)F)c1
3. N#CCNC(=O)C(=O)NCc1ccc(-c2ccn(C(F)F)n2)cc1C(=O)NC1(c2ccc(F)c3ccccc23)CC1
4. CC(C)OC(=O)/C=C/CNC(=O)C(=O)NCc1ccccc1C(=O)NC1(c2cccc3ccccc23)CC1
5. O=C(NCC#Cc1cc(F)ccn1)C(=O)NCc1ccccc1C(=O)NC1(c2ccc3ccccc3c2)CC1
6. N#Cc1cc(-c2cccs2)cc(C2(NC(=O)c3ccccc3CNC(=O)C(=O)NCC#Cc3nccs3)CC2)c1
7. O=C(NC/C=C1\CCOC1=O)C(=O)NCc1ccccc1C(=O)NC1(c2cccc3ccccc23)CC1

Response:
1: 5.00 to 6.00; 2: > 6.00; 3: 5.00 to 6.00; 4: 5.00 to 6.00; 5: > 6.00; 6: > 6.00; 7: > 6.00

List pEC50 for every entry below, keeping the order given.
1. C[C@H](NC(=O)c1ccccc1CNC(=O)C(=O)NCC#N)c1cc(C(F)(F)F)nc2ccccc12
2. C#CCNC(=O)C(=O)NCc1ccccc1C(=O)NC1(c2cccc3cc(F)ccc23)CC1
3. N#CCNC(=O)C(=O)NCc1ccccc1C(=O)NC1(c2ccnc3cc(Cl)ccc23)CC1
4. C[C@@H](C#Cc1c(F)cccc1C#N)NC(=O)C(=O)NCc1ccccc1C(=O)NC1(c2ccc3nn(C)cc3c2)CC1
5. O=C(NCC#Cc1ncc(F)cn1)C(=O)NCc1ccccc1C(=O)NC1(c2cc(F)cc(-c3cnn(C4CC4)c3)c2)CC1
6. O=C(C#CCNC(=O)C(=O)NCc1ccccc1C(=O)NC1(c2ccc3ccccc3c2)CC1)NC1CC1
7. C#CCNC(=O)C(=O)NCc1ccccc1C(=O)NC1(c2cc(-c3cnn(C4CC4)c3)ccc2Cl)CC1
8. C#CCNC(=O)C(=O)NCc1ccccc1C(=O)NC1(c2cc(Cl)cc(-c3cnco3)c2)CC1

Response:
1: 5.00 to 6.00; 2: > 6.00; 3: 5.00 to 6.00; 4: > 6.00; 5: > 6.00; 6: > 6.00; 7: > 6.00; 8: > 6.00
